- Test system: HPNE
- testSummary: MTT cytotoxicity assay
- Type: cell-based
- conditionContext: HPNE; MTT, 72 h
Please respond with reported IC50 for every item in the list.

[
  {
    "compound": "CO[C@@H]1[C@H](O)[C@@H]([C@@H](O[C@H]2OC(C(=O)NCc3ccc(N4CCC(Oc5ccc(OC(F)(F)F)cc5)CC4)cc3)=C[C@H](O)[C@@H]2O)C(N)=O)O[C@H]1n1ccc(=O)[nH]c1=O",
    "reportedEndpoint": "IC50",
    "endpointResult": "> 50 µM"
  }
]

IC50 recorded for this compound, CO[C@H]1[C@@H](O)[C@H](n2ccc(=O)[nH]c2=O)O[C@@H]1[C@@H](O[C@H]1OC(C(=O)N[C@H]2CCCCNC2=O)=C[C@H](O)[C@@H]1O)C(N)=O , is > 50 µM

----------
- System: HCT-116
- testSummary: MTT cytotoxicity assay
- Assay type: cell-based
- conditionContext: 72 h
reportedEndpoint: IC50

IC50 recorded for this compound, CO[C@H]1[C@@H](OC)[C@H](n2ccc(=O)[nH]c2=O)O[C@@H]1[C@@H](O[C@H]1OC(C(=O)N[C@H]2CCCCNC2=O)=C[C@H](O)[C@@H]1O)C(N)=O , is > 50 µM

----------
- experimentalSystem: WecA (E. coli) (Escherichia coli)
- Sequence (P0AC78 whole entry): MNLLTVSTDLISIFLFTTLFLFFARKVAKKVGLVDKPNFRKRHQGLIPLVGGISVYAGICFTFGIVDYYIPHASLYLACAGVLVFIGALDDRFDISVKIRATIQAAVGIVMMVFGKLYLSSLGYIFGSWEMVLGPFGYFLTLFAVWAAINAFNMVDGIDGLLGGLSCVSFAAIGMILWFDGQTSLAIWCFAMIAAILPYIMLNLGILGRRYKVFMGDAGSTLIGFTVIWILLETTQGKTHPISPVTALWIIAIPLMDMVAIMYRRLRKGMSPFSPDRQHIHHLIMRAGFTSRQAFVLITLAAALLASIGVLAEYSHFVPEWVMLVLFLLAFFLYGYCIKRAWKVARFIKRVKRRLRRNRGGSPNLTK
- testSummary: WecA assay
reportedEndpoint: pIC50
Answers are plain numbers, as −log10 of the molar value.

[
  {
    "compound": "COC1C(O)C(C(OC2OC(C(=O)NC3CCCCNC3=O)=CC(O)C2O)C(N)=O)OC1n1ccc(=O)[nH]c1=O (stereo not drawn) [iso-Capuramycin]",
    "experimentalSystem": "WecA (E. coli) (Escherichia coli)",
    "reportedEndpoint": "pIC50",
    "endpointResult": 4.52
  }
]

Give pIC50 for each of the items listed below.
1. COC1C(O)[C@@H]([C@@H](O[C@H]2OC(C(=O)NCc3ccc(N4CCC(c5ccc(OC(F)(F)F)cc5)CC4)cc3)=C[C@H](O)[C@@H]2O)C(N)=O)O[C@H]1n1ccc(=O)[nH]c1=O (stereo partly drawn) [I-CPPB]
2. NC(=O)[C@H](O[C@H]1OC(C(=O)NCc2ccc(N3CCC(c4ccc(OC(F)(F)F)cc4)CC3)cc2)=C[C@H](O)[C@@H]1O)[C@H]1O[C@@H](n2ccc(=O)[nH]c2=O)C(O)C1O (stereo partly drawn) [DM-CPPB]
3. NC(=O)[C@H](O[C@H]1OC(C(=O)N[C@H]2CCCCNC2=O)=C[C@H](O)[C@@H]1O)[C@H]1O[C@@H](n2ccc(=O)[nH]c2=O)C(O)C1O (stereo partly drawn) [Dimethyl capuramycin]

Result:
1. 4.70
2. 4.52
3. 4.46
